Molecular target: RSV protein F (recombinant or purified F protein) (human respiratory syncytial virus, …)
Assay: SPR Biacore 3000, Fab over amine-coupled recombinant protein F
Give t1/2 for every item shown.
Give the value, in units of h, as a plain number.

QUERY: Specify measured t1/2 for Fab fragment of antibody 817 (Fab, V domains shown, also called Fab clone 817) VH: QVQLVESGGGVVQPGRSLRLSCAASGFGFNTHGMHWVRQAPGKGLEWLSIISLDGIKTHYADSVKGRFTISRDNSKNTVFLQLSGLRPEDTAVYYCAKDHIGGTNAYFEWTVPFDGWGQGTLVTVSS VL: EIVMTQSPATLSASPGERATLSCWASQTIGGNLAWYQQKPGQAPRLLIYGASTRATGVPARFSGSGSGTEFTLAISSLQSEDFAVYYCQQYKNWYTFGQGTKLELKR .
RESULT: 2.5

QUERY: Specify measured t1/2 for Fab fragment of antibody 858 (Fab, V domains shown, also called Fab clone 858) VH: QVQLVQSGAEVKKPGSSVKVSCKASGGSFDGYTISWLRQAPGQGLEWMGRVVPTLGFPNYAQKFQGRVTVTADRSTNTAYLELSRLTSEDTAVYYCARMNLGSHSGRPGFDMWGQGTLVTVSS VL: DIQMTQSPSSVSASVGDRVTITCQASQDISNYLNWYQQKPGKAPKLLIFDATKLETGVPTRFIGSGSGTDFTVTITSLQPEDVATYYCQHFANLPYTFGQGTKLEIKR .
RESULT: 56.7

QUERY: Specify measured t1/2 for Fab fragment of antibody 735 (Fab, V domains shown, also called Fab clone 735) VH: QVQLQESGPGLVKPSETLSLTCTVSNGAIGDYDWSWIRQSPGKGLEWIGNINYRGNTNYNPSLKSRVTMSLRTSTMQFSLKLSSATAADTAVYYCARDVGYGGGQYFAMDVWSPGTTVTVSS VL: EIVLTQSPATLSLSPGERATLSCRASQSVNSHLAWYQQKPGQAPRLLIYNTFNRVTGIPARFSGSGSGTDFTLTISSLATEDFGVYYCQQRSNWPPALTFGGGTKVEIKR .
RESULT: 2.17
